- Test system: PqsR (pqsA promoter, PAO1-L mCTX::PpqsA-lux)
- MEASUREMENT_PROTOCOL: Whole cell biosensor reporter assay, PAO1-L mCTX::PpqsA-lux
- Format: cell-based, Pseudomonas aeruginosa
- MEASUREMENT_CONTEXT: Pseudomonas aeruginosa, PAO1, read-out: PAO1-L Remaining Activity %
Listed below: activity at 10 µM values for each entry.
API: value field is a number in %; no unit string.

Sample records with activity at 10 µM:
CC(=O)N1N=C(c2ccccc2)CC1c1cccc(Nc2ccnc3cc(Cl)ccc23)c1 (stereo not drawn) [IIa]
31.6
O=CN1N=C(c2ccccc2)CC1c1cccc(Nc2ccnc3cc(C(F)(F)F)ccc23)c1 (stereo not drawn) [Ii]
15.6

Query :: Consider the compound O=CN1N=C(c2ccc3c(c2)OCO3)CC1c1cccc(Nc2ccnc3cc(Cl)ccc23)c1 (stereo not drawn) [Ih] and give its measured activity at 10 µM.
Result :: 49.9

----------
Listed below: activity at 10 µM values for each entry.
- System: PqsR (pqsA promoter, PA14 mCTX::PpqsA-lux)
- MEASUREMENT_PROTOCOL: Whole cell biosensor reporter assay, PA14 mCTX::PpqsA-lux
- Format: cell-based, Pseudomonas aeruginosa
- MEASUREMENT_CONTEXT: Pseudomonas aeruginosa, PA14, read-out: PA14 Remaining Activity %
API: value field is a number in %; no unit string.

COc1cc(C2=NN(C(C)=O)C(c3cccc(Nc4ccnc5cc(C(F)(F)F)ccc45)c3)C2)cc(OC)c1OC (centres unmarked)
103

Query :: # query: activity at 10 µM | item CC(=O)N1N=C(c2ccccc2)CC1c1cccc(Nc2ccnc3cc(Cl)ccc23)c1 (centres unmarked) | system: PqsR (pqsA promoter, PA14 mCTX::PpqsA-lux)
Result :: 19.7

Query :: # query: activity at 10 µM | item O=CN1N=C(c2ccc(Cl)cc2)CC1c1cccc(Nc2ccnc3cc(C(F)(F)F)ccc23)c1 (centres unmarked) | system: PqsR (pqsA promoter, PA14 mCTX::PpqsA-lux)
Result :: 93.6

Query :: # query: activity at 10 µM | item O=CN1N=C(c2ccc3c(c2)OCO3)CC1c1cccc(Nc2ccnc3cc(C(F)(F)F)ccc23)c1 (centres unmarked) | system: PqsR (pqsA promoter, PA14 mCTX::PpqsA-lux)
Result :: 81.4

Query :: # query: activity at 10 µM | item CC(=O)N1N=C(c2ccc(F)cc2)CC1c1cccc(Nc2ccnc3cc(C(F)(F)F)ccc23)c1 (centres unmarked) | system: PqsR (pqsA promoter, PA14 mCTX::PpqsA-lux)
Result :: 99.9

Query :: # query: activity at 10 µM | item COc1ccc(C2=NN(C(C)=O)C(c3cccc(Nc4ccnc5cc(C(F)(F)F)ccc45)c3)C2)cc1 (centres unmarked) | system: PqsR (pqsA promoter, PA14 mCTX::PpqsA-lux)
Result :: 118

Query :: # query: activity at 10 µM | item CC(=O)N1N=C(c2ccc(C)cc2)CC1c1cccc(Nc2ccnc3cc(C(F)(F)F)ccc23)c1 (centres unmarked) | system: PqsR (pqsA promoter, PA14 mCTX::PpqsA-lux)
Result :: 108

----------
Listed below: microsomal CLint at 1 µM values for each entry.
- MEASUREMENT_PROTOCOL: Hepatic microsomal stability, human
- Format: in vitro ADME
- MEASUREMENT_CONTEXT: liver microsomes, pH 7.4, 0.5 mg/mL protein, NADPH, 37 °C

Sample records with microsomal CLint at 1 µM:
CC(=O)N1N=C(c2ccccc2)CC1c1cccc(Nc2ccnc3cc(C(F)(F)F)ccc23)c1 (stereo not shown)
72.9 µL/min/mg
O=CN1N=C(c2ccccc2)CC1c1cccc(Nc2ccnc3cc(Cl)ccc23)c1 (stereo not shown)
60.3 µL/min/mg
CC(=O)N1N=C(c2ccccc2)CC1c1cccc(Nc2ccnc3cc(Cl)ccc23)c1 (stereo not shown)
73 µL/min/mg

Could you now consider this next compound?
Query :: Consider the compound O=CN1N=C(c2ccccc2)CC1c1cccc(Nc2ccnc3cc(C(F)(F)F)ccc23)c1 (stereo not shown) and give its measured microsomal CLint at 1 µM.
Result :: 80.7 µL/min/mg

----------
- Tested on: PqsR (pqsA promoter, PA14 mCTX::PpqsA-lux)
- MEASUREMENT_PROTOCOL: Whole cell biosensor reporter assay, PA14 mCTX::PpqsA-lux
- Type: cell-based, Pseudomonas aeruginosa
- MEASUREMENT_CONTEXT: Pseudomonas aeruginosa, PA14, read-out: PA14 Remaining Activity %
- Protocol: To determine the ability of the quinolines to inhibit PqsR functionality, the P. aeruginosa biosensor strains, PAO1-L and PA14, incorporating a chromosomal mCTX::PpqsA-lux transcriptional fusion, were used. […] The quinolone compounds were incubated with the corresponding strain, and luminescence and optical density readings were recorded to monitor the effect of the quinolines on PqsR activity and bacterial growth, respectively. […]
Listed below: activity at 10 µM values for each entry.
API: value field is a number in %; no unit string.

Sample records with activity at 10 µM:
Cc1ccc(C2=NN(C=O)C(c3cccc(Nc4ccnc5cc(Cl)ccc45)c3)C2)cc1 (centres unmarked)
78.4
CC(=O)N1N=C(c2ccc(Br)cc2)CC1c1cccc(Nc2ccnc3cc(C(F)(F)F)ccc23)c1 (centres unmarked)
95.6
CC(=O)N1N=C(c2ccc(F)cc2)CC1c1cccc(Nc2ccnc3cc(Cl)ccc23)c1 (centres unmarked)
120
CC(=O)N1N=C(c2ccc(Br)cc2)CC1c1cccc(Nc2ccnc3cc(Cl)ccc23)c1 (centres unmarked)
109

Query :: Consider the compound O=CN1N=C(c2ccccc2)CC1c1cccc(Nc2ccnc3cc(Cl)ccc23)c1 (centres unmarked) and give its measured activity at 10 µM.
Result :: 18.7

----------
- Tested on: PqsR (pqsA promoter, PAO1-L mCTX::PpqsA-lux)
- MEASUREMENT_PROTOCOL: Whole cell biosensor reporter assay, PAO1-L mCTX::PpqsA-lux
- Assay type: cell-based, Pseudomonas aeruginosa
- MEASUREMENT_CONTEXT: Pseudomonas aeruginosa, PAO1, read-out: PAO1-L Remaining Activity %
Listed below: activity at 10 µM values for each entry.

Query :: Consider the molecule COc1ccc(C2=NN(C(C)=O)C(c3cccc(Nc4ccnc5cc(C(F)(F)F)ccc45)c3)C2)cc1 (stereo not shown) [IIk] and give its measured activity at 10 µM.
Result :: 66.7%

Query :: Consider the molecule O=CN1N=C(c2ccc(F)cc2)CC1c1cccc(Nc2ccnc3cc(Cl)ccc23)c1 (stereo not shown) [Ie] and give its measured activity at 10 µM.
Result :: 40.6%

Query :: Consider the molecule COc1cc(C2=NN(C(C)=O)C(c3cccc(Nc4ccnc5cc(Cl)ccc45)c3)C2)cc(OC)c1OC (stereo not shown) [IId] and give its measured activity at 10 µM.
Result :: 127%

Query :: Consider the molecule CC(=O)N1N=C(c2ccc(C)cc2)CC1c1cccc(Nc2ccnc3cc(Cl)ccc23)c1 (stereo not shown) [IIb] and give its measured activity at 10 µM.
Result :: 59.5%

----------
- System: PqsR (pqsA promoter, PA14 mCTX::PpqsA-lux)
- MEASUREMENT_PROTOCOL: Whole cell biosensor reporter assay, PA14 mCTX::PpqsA-lux
- Assay type: cell-based, Pseudomonas aeruginosa
- MEASUREMENT_CONTEXT: Pseudomonas aeruginosa, PA14, read-out: PA14 Remaining Activity %
PROPERTY_NAME: activity at 10 µM (%)
API: value field is a number in %; no unit string.

Sample records with activity at 10 µM:
O=CN1N=C(c2ccc(Br)cc2)CC1c1cccc(Nc2ccnc3cc(Cl)ccc23)c1 (stereo not shown) [Ig]
94.8
COc1ccc(C2=NN(C(C)=O)C(c3cccc(Nc4ccnc5cc(Cl)ccc45)c3)C2)cc1 (stereo not shown) [IIc]
115
O=CN1N=C(c2ccc(F)cc2)CC1c1cccc(Nc2ccnc3cc(Cl)ccc23)c1 (stereo not shown) [Ie]
70.4
CC(=O)N1N=C(c2ccc(Cl)cc2)CC1c1cccc(Nc2ccnc3cc(Cl)ccc23)c1 (stereo not shown) [IIf]
103
CC(=O)N1N=C(c2ccccc2)CC1c1cccc(Nc2ccnc3cc(C(F)(F)F)ccc23)c1 (stereo not shown) [IIi]
16.8

Query :: Consider the compound COc1cc(C2=NN(C=O)C(c3cccc(Nc4ccnc5cc(C(F)(F)F)ccc45)c3)C2)cc(OC)c1OC (stereo not shown) [Il] and give its measured activity at 10 µM.
Result :: 106

Query :: Consider the compound O=CN1N=C(c2ccc(F)cc2)CC1c1cccc(Nc2ccnc3cc(C(F)(F)F)ccc23)c1 (stereo not shown) [Im] and give its measured activity at 10 µM.
Result :: 74.9

Query :: Consider the compound CC(=O)N1N=C(c2ccc3c(c2)OCO3)CC1c1cccc(Nc2ccnc3cc(Cl)ccc23)c1 (stereo not shown) [IIh] and give its measured activity at 10 µM.
Result :: 115

Query :: Consider the compound CC(=O)N1N=C(c2ccc(C)cc2)CC1c1cccc(Nc2ccnc3cc(Cl)ccc23)c1 (stereo not shown) [IIb] and give its measured activity at 10 µM.
Result :: 96.2

Query :: Consider the compound COc1cc(C2=NN(C(C)=O)C(c3cccc(Nc4ccnc5cc(Cl)ccc45)c3)C2)cc(OC)c1OC (stereo not shown) [IId] and give its measured activity at 10 µM.
Result :: 110

Query :: Consider the compound O=CN1N=C(c2ccccc2)CC1c1cccc(Nc2ccnc3cc(C(F)(F)F)ccc23)c1 (stereo not shown) [Ii] and give its measured activity at 10 µM.
Result :: 16.6
